Each recorded value in this set is attributed to patent US20200399364A1.

Listed here: items and their measured EC50.
target: T1, human claudin 18.2 (CLDN18.2) (human); experiment: FACS on HEK293-CLDN18.2 stable pool, FITC-based detection
T1 construct: also called claudin 18 variant 2; claudin-18a2.1
T1 sequence (chain, as listed by the source limits assumed): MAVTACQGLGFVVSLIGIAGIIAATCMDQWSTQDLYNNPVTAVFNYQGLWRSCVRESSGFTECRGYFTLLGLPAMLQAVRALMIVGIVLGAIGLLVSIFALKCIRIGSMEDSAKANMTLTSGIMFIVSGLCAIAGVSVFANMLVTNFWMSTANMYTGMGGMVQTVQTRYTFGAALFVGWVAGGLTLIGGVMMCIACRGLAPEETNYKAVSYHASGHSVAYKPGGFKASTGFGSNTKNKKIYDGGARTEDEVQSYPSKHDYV
Numeric only. Scale: nM

Worked examples follow.
binder	EC50, nM
humanized anti-CLDN18.2 mAb 2-C3-H1L1 (antibody, V domains shown, Humanized VH and VL fused to the constant regions of human IgG1 heavy chain and kappa light chain) VH: QVTLRESGPALVKPTQTLTLTCTASGFTFSSYGMSWVRQPPGKALEWVATISGGGSYTYYNPSLKDRFTISRDISANQLVLKVTNMDPADTATYFCARQSRGNAMDYWGQGTTVTVSS VL: DIQMTQSPSTLSASVGDRVTITCKSSQSLLNSGNQKNYLTWYQQKPGKAPKLLIYWASTRESGVPSRFSGSGSGTAFTLTISSLQPDDFATYYCQNDYSYPLTFGGGTKVEIK	9.8
humanized anti-CLDN18.2 mAb 2-C3-H2L1 (antibody, V domains shown, Humanized VH and VL fused to the constant regions of human IgG1 heavy chain and kappa light chain) VH: QVTLRESGPALVKPTQTLTLTCTFSGFTFSSYGMSWIRQPPGKALEWLATISGGGSYTYYLDSLKDRFTISRDISKNQVVLTVTNMDPADTATYFCARQSRGNAMDYWGQGTTVTVSS VL: DIQMTQSPSTLSASVGDRVTITCKSSQSLLNSGNQKNYLTWYQQKPGKAPKLLIYWASTRESGVPSRFSGSGSGTAFTLTISSLQPDDFATYYCQNDYSYPLTFGGGTKVEIK	8.8
humanized anti-CLDN18.2 mAb 6-J11-H2L1 (antibody, V domains shown, Humanized VH and VL fused to the constant regions of human IgG1 heavy chain and kappa light chain) VH: EVQLVESGGGLVQPGGSLRLSCAASGFIFSSFGMHWVRQAPGKGLEWVAYISSGRSTMYYADSVKGRFTISRDNSKNTLYLQMNSLRSEDTAVYYCARGGFYGNSLDYWGQGTLVTVSS VL: DIQMTQSPSSLSASVGDRVTITCKSSLSLLNSGNQKNYLTWYQQKPGKAPKLLIYWASTRESGVPSRFSGSGSGTDFTLTISSLQPEDFATYSCQNAYSYPLTFGQGTKVEIK	11.4
humanized anti-CLDN18.2 mAb 2-C3-H1L2 (antibody, V domains shown, Humanized VH and VL fused to the constant regions of human IgG1 heavy chain and kappa light chain) VH: QVTLRESGPALVKPTQTLTLTCTASGFTFSSYGMSWVRQPPGKALEWVATISGGGSYTYYNPSLKDRFTISRDISANQLVLKVTNMDPADTATYFCARQSRGNAMDYWGQGTTVTVSS VL: DIQMTQSPSTLSASVGDRVTITCKSSQSLLNSGNQKNYLTWYQQKPGKAPKLLIYWASTRESGVPSRFSGSGSGTEFTLTISSLQPDDFATYYCQNDYSYPLTFGGGTKVEIK	9.1
humanized anti-CLDN18.2 mAb 6-J11-H1L1 (antibody, V domains shown, Humanized VH and VL fused to the constant regions of human IgG1 heavy chain and kappa light chain) VH: EVQLVESGGGLVQPGGSLRLSCAASGFIFSSFGMHWVRQAPGKGLEWVAYISSGRSTMYYADSVKGRFTISRDNSKNTLYLQMNSLTAEDTAVYYCARGGFYGNSLDYWGQGTLVTVSS VL: DIQMTQSPSSLSASVGDRVTITCKSSLSLLNSGNQKNYLTWYQQKPGKAPKLLIYWASTRESGVPSRFSGSGSGTDFTLTISSLQPEDFATYSCQNAYSYPLTFGQGTKVEIK	11.2

Prompt: I have this binder here, humanized anti-CLDN18.2 mAb 2-C3-H2L2 (antibody, V domains shown, Humanized VH and VL fused to the constant regions of human IgG1 heavy chain and kappa light chain) VH: QVTLRESGPALVKPTQTLTLTCTFSGFTFSSYGMSWIRQPPGKALEWLATISGGGSYTYYLDSLKDRFTISRDISKNQVVLTVTNMDPADTATYFCARQSRGNAMDYWGQGTTVTVSS VL: DIQMTQSPSTLSASVGDRVTITCKSSQSLLNSGNQKNYLTWYQQKPGKAPKLLIYWASTRESGVPSRFSGSGSGTEFTLTISSLQPDDFATYYCQNDYSYPLTFGGGTKVEIK , and I need its recorded EC50.
Completion: 8

Prompt: Try this binder too: humanized anti-CLDN18.2 mAb 5-E22-H1L3 (antibody, V domains shown, Humanized VH and VL fused to the constant regions of human IgG1 heavy chain and kappa light chain) VH: QVQLVQSGVEVKKPGASVKVSCKASGYTITDNYMHWVRQAPGQGLEWIGEIYPGSGNTYFNEKFKNRATLTADKSTTTAYMELKSLQFDDTAVYFCARGFPYYAMDYWGQGTTVTVSS VL: DIVMTQSPLSLPVTPGEPASISCHARQNINVWLSWYLQKPGQSPQLLIYKASNLHTGVPDRFSGSGSGTDFTLKISRVEAEDVGVYYCQQGQNYPLTFGQGTKVEIK
Completion: 61

Prompt: Same question, humanized anti-CLDN18.2 mAb 5-E22-H1L1 (antibody, V domains shown, Humanized VH and VL fused to the constant regions of human IgG1 heavy chain and kappa light chain) VH: QVQLVQSGVEVKKPGASVKVSCKASGYTITDNYMHWVRQAPGQGLEWIGEIYPGSGNTYFNEKFKNRATLTADKSTTTAYMELKSLQFDDTAVYFCARGFPYYAMDYWGQGTTVTVSS VL: EIVMTQSPATLSLSPGERATLSCHARQNINVWLSWYQQKPGQAPRLLIYKASNLHTGVPARFSGSGSGTDFTLTISSLEPEDFAVYYCQQGQNYPLTFGGGTKVEIK this time
Completion: 59
